Recorded IC50 of blocking activity, cAMP-Glo, 300 nM NECA, HEK293-hA2aR cells, supernatant for the following binders
# study-target: human adenosine A2A receptor (A2aR) (human, UniProt P29274 1-412)
# Sequence (P29274 whole entry): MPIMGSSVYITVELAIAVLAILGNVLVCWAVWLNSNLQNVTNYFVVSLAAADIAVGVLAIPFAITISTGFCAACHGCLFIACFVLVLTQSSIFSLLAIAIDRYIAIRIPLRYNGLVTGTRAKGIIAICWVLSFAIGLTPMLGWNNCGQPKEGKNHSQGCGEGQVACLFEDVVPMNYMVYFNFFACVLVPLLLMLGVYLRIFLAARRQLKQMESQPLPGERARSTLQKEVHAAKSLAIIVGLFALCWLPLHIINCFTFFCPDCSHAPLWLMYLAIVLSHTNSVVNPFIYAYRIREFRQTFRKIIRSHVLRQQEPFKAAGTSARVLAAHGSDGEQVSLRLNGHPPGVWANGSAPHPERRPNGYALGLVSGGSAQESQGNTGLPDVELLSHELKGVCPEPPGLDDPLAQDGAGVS
# test-details: cell-based or functional assay
Note: unit nM is implicit; provide only the numeric part.

IN: Using the record for Hu3F8-H4/Hu3F8-L5 (antibody, human IgG1, V domains shown, Human IgG1 FES (L234F, L235E, P331S) and human Ig kappa constant domains; also called Hu3F8 VH4/VL5) VH: EVQLVQSGAEVKKPGASVKVSCKASGFTFTRYWMNWVRQAPGQGLEWIGRIDPSDSETHYNHKFWGRATLTVDKSTSTVYMELSSLRSEDTAVYYCLRSLYGKGDYWGQGTTVTVSS VL: DVVMTQSPLSLPVTPGEPASISCRSSQSIVHSNGNTYLEWYLQKPGQSPQLLIYKVSNRFSGVPDRFSGSGSGTDFTLKISRVEAEDVGVYYCYQGSHVPLTFGGGTKVEIK , report its IC50 of blocking activity, cAMP-Glo, 300 nM NECA, HEK293-hA2aR cells, supernatant.
OUT: 1.5

IN: Return reported IC50 of blocking activity, cAMP-Glo, 300 nM NECA, HEK293-hA2aR cells, supernatant; argument: Hu3F8-H2/Hu3F8-L5 (antibody, human IgG1, V domains shown, Human IgG1 FES (L234F, L235E, P331S) and human Ig kappa constant domains; also called Hu3F8 VH2/VL5) VH: EVQLVQSGAEVKKPGASVKVSCKASGFTFTRYWMNWVRQAPGQGLEWMGRIDPSDSETHYNHKFWGRVTMTVDTSTSTVYMELSSLRSEDTAVYYCLRSLYGKGDYWGQGTTVTVSS VL: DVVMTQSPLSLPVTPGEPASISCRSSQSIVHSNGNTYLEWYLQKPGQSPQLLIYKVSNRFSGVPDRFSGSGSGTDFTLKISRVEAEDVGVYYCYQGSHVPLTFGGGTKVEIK
OUT: 1.8

IN: Value lookup for IC50 of blocking activity, cAMP-Glo, 300 nM NECA, HEK293-hA2aR cells, supernatant; key = Hu3F8-H3/Hu3F8-L4 (antibody, human IgG1, V domains shown, Human IgG1 FES (L234F, L235E, P331S) and human Ig kappa constant domains) VH: EVQLVQSGAEVKKPGASVKVSCKASGFTFTRYWMNWVRQAPGQGLEWIGRIDPSDSETHYNHKFWGRATLTVDTSTSTVYMELSSLRSEDTAVYYCLRSLYGKGDYWGQGTTVTVSS VL: DIVMTQSPLSLPVTPGEPASISCRSSQSIVHSNGNTYLEWYLQKPGQSPQLLIYKVSNRFSGVPDRFSGSGSGTDFTLKISRVEAEDVGVYYCYQGSHVPLTFGGGTKVEIK
OUT: 1.7
